Taken from patent US20250120981A1.

- Assay method text: Pharmacokinetics in humans, MRTX1133 formulation, oral, single and multiple doses
- Assay type: in vivo
- Settings: human, plasma, po, 400 mg, single oral dose of 400 mg, fasted; 72 h; individual subjects; read-out: Plasma concentration
- Procedure: The pharmacokinetics [PK] of the MRTX1133 formulation after oral administration has been evaluated in 25 subjects across 3 escalating dose frequencies under fasting conditions (200 mg twice daily [BID], 400 mg BID, and 800 mg BID), as well as evaluation of 400 mg BID when administered with a low-fat meal (i.e., under fed conditions). The mean (+standard deviation) single-dose and multiple-dose pharmacokinetic profiles of the evaluated doses are presented in FIG. 9 and FIG. 10, respectively. […]
Endpoint: concentration at 72 h (ng/mL)
Just the number in ng/mL, nothing appended.

Give concentration at 72 h for C#Cc1c(F)ccc2cc(O)cc(-c3ncc4c(N5C[C@H]6CC[C@@H](C5)N6)nc(OC[C@@]56CCCN5C[C@H](F)C6)nc4c3F)c12 [MRTX1133]
0.872
